Hello, the source for this data is patent US20230116972A1, in case you need it.

Each entry below lists one item and its recorded log10 IC50 value.
Tested Target: mouse CD38 (Mus musculus, UniProt P56528)
Sequence (P56528 whole entry): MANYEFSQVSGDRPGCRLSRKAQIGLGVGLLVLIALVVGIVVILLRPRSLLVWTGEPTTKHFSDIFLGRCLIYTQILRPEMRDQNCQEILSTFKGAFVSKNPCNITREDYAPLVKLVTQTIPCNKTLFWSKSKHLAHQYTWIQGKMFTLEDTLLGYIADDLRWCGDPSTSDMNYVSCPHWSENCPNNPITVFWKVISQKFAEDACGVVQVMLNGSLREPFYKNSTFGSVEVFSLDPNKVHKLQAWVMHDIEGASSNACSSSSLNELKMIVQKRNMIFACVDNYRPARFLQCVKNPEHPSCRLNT
Assay Protocol: mouse recombinant CD38 enzyme assay (hydrolysis of NAD+)
Recorded Conditions: read-out: mCD38 BioChem IC50
Friendly reminder: values = log10 of IC50, unit µM.

Problem: Endpoint output: log10 IC50 of `Cc1cnc(-c2cncn2C)nc1C(=O)N[C@H]1CC[C@H](O)CC1` . Value?
Solution: -1.49

---

Tested Target: CYP3A4 (Homo sapiens)
Construct: from tissue; host or cells: human liver microsomes (pooled in the time-dependent assay)
Sequence (P08684 whole entry): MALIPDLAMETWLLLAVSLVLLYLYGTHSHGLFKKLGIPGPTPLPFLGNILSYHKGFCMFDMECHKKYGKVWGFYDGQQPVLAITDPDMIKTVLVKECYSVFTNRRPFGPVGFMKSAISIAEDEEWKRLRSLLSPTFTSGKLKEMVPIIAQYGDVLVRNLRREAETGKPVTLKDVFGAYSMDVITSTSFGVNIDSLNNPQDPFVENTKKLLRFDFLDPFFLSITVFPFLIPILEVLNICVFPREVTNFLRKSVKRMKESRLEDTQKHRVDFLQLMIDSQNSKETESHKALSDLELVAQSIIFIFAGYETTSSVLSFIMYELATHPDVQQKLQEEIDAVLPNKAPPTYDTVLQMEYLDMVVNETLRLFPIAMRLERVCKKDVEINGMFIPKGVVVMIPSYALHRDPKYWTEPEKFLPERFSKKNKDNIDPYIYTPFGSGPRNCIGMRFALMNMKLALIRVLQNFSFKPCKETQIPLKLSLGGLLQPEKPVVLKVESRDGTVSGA
Assay Protocol: direct inhibition of CYP450 in human liver microsomes (midazolam and testosterone probes)
Format: in vitro ADME
Recorded Conditions: 50 uM, midazolam probe, read-out: CYP3A4-M T0 % activity
Each entry below lists one item and its recorded activity at 50 µM value.
Number in %, nothing else.

Problem: Endpoint output: activity at 50 µM of CO[C@H]1CC[C@H](NC(=O)c2cc(C3CCC(F)(F)CC3)nc(-c3cncn3C)n2)CC1 [Compound 289] . Value?
Solution: 96

Problem: Now the molecule [2H]c1nc([2H])n(-c2nc(C)cc(C(=O)N[C@H]3CC[C@H](OCCOC)CC3)n2)c1[2H] [Comparator Compound A, reference compound]
Solution: 91

Problem: Now the molecule Cn1cncc1-c1ccnc(C(=O)Nc2ccc(C(C)(C)O)nc2)n1 [Compound 250]
Solution: 73

Problem: Now the molecule CO[C@H]1CC[C@H](NC(=O)c2cc(C3(C)COC3)nc(-c3cncn3C)n2)CC1 [Compound 295]
Solution: 101

Problem: Now the molecule CO[C@H]1CC[C@H](NC(=O)c2cc(C3CCOCC3)nc(-c3cncn3C)n2)CC1 [Compound 199]
Solution: 79

Problem: Now the molecule CC(C)(O)c1ccc(NC(=O)c2nccc(-n3ccnc3)n2)cn1 [Compound 249]
Solution: 100

Next:
Problem: Endpoint output: activity at 50 µM of Cn1cncc1-c1ccnc(C(=O)N[C@H]2CC[C@H](O)CC2)n1 [Compound 256] . Value?
Solution: 82

Problem: Now the molecule CO[C@H]1CC[C@H](NC(=O)c2nccc(-n3ccnc3)n2)CC1 [Compound 145]
Solution: 75
